target: Lysine-specific demethylase 5B (Homo sapiens) (UniProt Q9UGL1); assay: Optimization screen for KDM5B Histone Demethylases FDH coupled qHTS against the LOPAC library (AID 1347166); conditions: KDM5B demethylation, FDH-coupled NADH fluorescence (FDH is formaldehyde dehydrogenase); series mostly up to 57.5 µM; note: 0% is about no effect
Sequence (Q9UGL1 whole entry, looked up): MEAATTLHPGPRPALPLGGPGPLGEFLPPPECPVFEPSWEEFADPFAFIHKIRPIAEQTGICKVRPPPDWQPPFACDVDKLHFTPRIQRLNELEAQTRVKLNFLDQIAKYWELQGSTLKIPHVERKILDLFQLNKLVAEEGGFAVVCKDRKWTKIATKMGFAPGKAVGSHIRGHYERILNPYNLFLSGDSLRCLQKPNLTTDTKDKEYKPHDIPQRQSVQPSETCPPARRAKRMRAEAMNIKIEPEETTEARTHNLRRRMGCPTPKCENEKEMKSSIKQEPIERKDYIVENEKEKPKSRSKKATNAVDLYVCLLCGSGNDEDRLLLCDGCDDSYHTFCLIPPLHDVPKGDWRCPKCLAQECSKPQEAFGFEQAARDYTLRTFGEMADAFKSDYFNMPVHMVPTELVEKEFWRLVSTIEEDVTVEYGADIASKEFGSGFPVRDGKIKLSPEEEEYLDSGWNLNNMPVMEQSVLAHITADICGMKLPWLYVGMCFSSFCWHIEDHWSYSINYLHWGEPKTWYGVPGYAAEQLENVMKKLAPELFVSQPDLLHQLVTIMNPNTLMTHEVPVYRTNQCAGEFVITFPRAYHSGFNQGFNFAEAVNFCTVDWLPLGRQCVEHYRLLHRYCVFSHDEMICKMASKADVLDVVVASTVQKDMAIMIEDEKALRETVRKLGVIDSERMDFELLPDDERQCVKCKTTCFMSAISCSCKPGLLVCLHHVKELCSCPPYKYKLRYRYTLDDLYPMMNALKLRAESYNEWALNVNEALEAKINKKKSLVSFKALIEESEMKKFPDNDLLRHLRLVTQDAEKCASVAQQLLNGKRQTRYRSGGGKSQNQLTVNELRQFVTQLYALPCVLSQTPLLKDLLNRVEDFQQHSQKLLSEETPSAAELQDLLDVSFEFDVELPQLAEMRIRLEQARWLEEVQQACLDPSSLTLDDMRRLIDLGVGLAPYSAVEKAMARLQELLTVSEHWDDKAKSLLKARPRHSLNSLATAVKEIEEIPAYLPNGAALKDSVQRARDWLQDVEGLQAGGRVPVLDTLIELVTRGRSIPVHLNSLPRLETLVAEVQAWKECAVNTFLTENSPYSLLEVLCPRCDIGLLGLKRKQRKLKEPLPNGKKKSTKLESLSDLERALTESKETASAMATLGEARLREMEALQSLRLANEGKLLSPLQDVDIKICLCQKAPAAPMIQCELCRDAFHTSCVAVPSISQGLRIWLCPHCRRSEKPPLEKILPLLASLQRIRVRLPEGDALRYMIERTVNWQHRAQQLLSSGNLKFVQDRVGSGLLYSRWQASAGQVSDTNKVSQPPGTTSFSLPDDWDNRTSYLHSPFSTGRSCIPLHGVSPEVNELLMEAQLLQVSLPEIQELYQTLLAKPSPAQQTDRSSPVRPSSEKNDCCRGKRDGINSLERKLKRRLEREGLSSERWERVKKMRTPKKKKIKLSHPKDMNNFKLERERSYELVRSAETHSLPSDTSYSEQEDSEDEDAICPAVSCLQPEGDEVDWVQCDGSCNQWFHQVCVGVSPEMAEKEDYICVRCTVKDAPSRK
Records with an inconclusive call do not appear. Activity calls are given as the source filed them. Calls come from the whole dose curve; as a rule, active = well fitted inhibition curve with a large enough effect; inconclusive = small, poorly fitted or top-dose-only effect; inactive = flat fitted curve, though single readings scatter.
PARAMETER MEASURED: outcome

Worked examples, 10 compounds total:
COMPOUND	outcome
C[N+]1(C)C2CC(OC(=O)[C@H](CO)c3ccccc3)CC1C1OC12 (some centres not stated)	inactive
CN1CCC[C@H]1c1cccnc1	inactive
NC[C@H]1O[C@@H](n2cnc3c(N)ncnc32)[C@H](O)[C@@H]1O	inactive
COc1ccccc1N1CCN(CCCCNS(=O)(=O)c2cccc3c(N(C)C)cccc23)CC1	inactive
CC1(C)CCC=[N+]1[O-]	inactive
COc1cccc(OC)c1OCCNCC1COc2ccccc2O1 (configuration not stated)	inactive
CNc1ncnc2c1ncn2[C@@H]1O[C@H](CO)[C@@H](O)[C@H]1O	inactive
CNCC[C@H](Oc1ccc(C(F)(F)F)cc1)c1ccccc1	inactive
O=C(O)CNC(=O)C(CS)Cc1ccccc1 (configuration not stated)	inactive
O=C(c1ccc(Cl)cc1)N1CCN(c2ccc([N+](=O)[O-])c3ncccc23)CC1	inactive

Consider the compound `O=C(O)CC[C@@H](C(=O)O)N1C(=O)c2ccccc2C1=O` and give its measured outcome.
inactive

Also check `COc1cc(SC)ccc1C(=O)N1CCC(Cc2ccccc2)CC1`
inactive

Also check CC(N)C(=O)OC(C)(C)Cc1ccc(Cl)cc1 (configuration not stated)
inactive

Also check CC(COc1ccc(/C=C/c2ccccc2)cc1)[N+](C)(C)C (configuration not stated)
inactive

Also check `O=c1[nH]c2cc([N+](=O)[O-])c([N+](=O)[O-])cc2[nH]c1=O`
inactive

Also check `CN(C)c1ccc(/C=C2\C(=O)Nc3ccccc32)cc1`
inactive

Also check C#CCN1C(C)=C(C(=O)OC)C(c2cccc([N+](=O)[O-])c2)C(C(=O)OCC)=C1C (configuration not stated)
inactive

Also check CN(C)CCC(c1ccc(Cl)cc1)c1ccccn1 (configuration not stated)
inactive

Also check `CCCN(CC1CC1)c1nc(C)nc(Nc2c(Cl)cc(Cl)cc2Cl)c1Cl`
inactive

Also check CCCCCCCCCCCCCCCCCC(=O)NCC(COP(=O)([O-])OCC[N+](C)(C)C)OCC (configuration not stated)
inactive

Also check `O=C(Nc1cccc(C(=O)Nc2ccc(S(=O)(=O)O)c3cc(S(=O)(=O)O)cc(S(=O)(=O)O)c23)c1)Nc1cccc(C(=O)Nc2ccc(S(=O)(=O)O)c3cc(S(=O)(=O)O)cc(S(=O)(=O)O)c23)c1`
inactive

Also check C#C[C@]1(O)CC[C@H]2[C@@H]3CCC4=Cc5oncc5CC4(C)[C@H]3CCC21C (some centres not stated)
inactive

----------
Assay: HTS Assay for Allosteric Antagonists of the Human D2 Dopamine Receptor: Hit Validation in HTRF (AID 624455);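 note: stable D1 dopamine receptor cell line scored for blocking the D1 response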
Settings: Cells stably expressing D1 dopamine receptor, inhibition mode; series mostly up to 46.1 µM
From the text: Dopamine receptors (DARs) are involved in the etiology and/or therapy of a number of neuropsychiatric and endocrine disorders. For instance, all receptor-based antiparkinsonian drugs work via stimulating the D2 DAR subtype whereas all FDA-approved antipsychotic agents are antagonists of this receptor. […]
Results filed as inconclusive are left out. Activity calls are given as the source filed them. The call rests on the fitted dose curve; in most records, active means well fitted inhibition curve with a large enough effect; inconclusive means small, poorly fitted or top-dose-only effect; inactive means no such curve, though single readings can be large or run the other way.
PARAMETER MEASURED: outcome

Worked examples, 6 molecules total:
> print(dat)
                                   molecule  endpoint.result
1       COc1ccc(NC(=O)/C=C/c2ccc(Cl)cc2)cc1         inactive
2           COc1cc2c(CCNC(C)=O)c[nH]c2cc1Cl         inactive
3    CNCC[C@H](Oc1ccc(C(F)(F)F)cc1)c1ccccc1         inactive
4    Ic1ccc(N2CCN(Cc3c[nH]c4ncccc34)CC2)cc1         inactive
5  CCCCC#Cc1nc(NC)c2ncn([C@@H]3O[C@H](CO)[C@@H](O)[C@H]3O)c2n1         inactive
6  C[N+]1(C)C2CC(OC(=O)[C@H](CO)c3ccccc3)CC1C1OC12 (stereo partly specified)         inactive

Consider the molecule `Nc1ncnc2c1ncn2[C@@H]1O[C@H](COP(=O)(O)CP(=O)(O)OP(=O)(O)O)[C@@H](O)[C@H]1O` and give its measured outcome.
inactive

Also check `CC(C)Cc1ccc([C@H](C)C(=O)O)cc1`
inactive

Also check `CCOC(=O)C1=C(C)NC(C)=C(C(=O)OCC)C1c1c(F)c(F)c(F)c(F)c1F`
inactive

Also check `NCCCCCCCCCCN`
inactive

Also check `Cc1cc2c(cc1Cl)N(C(=O)Nc1ccc(Oc3cccnc3C)nc1)CC2`
inactive

----------
test: qHTS of pediatric cancer cell lines to identify multiple opportunities for drug repurposing: Primary screen for TC32 cells (AID 1347089); settings: TC32 Ewing sarcoma viability, CellTiter-Glo luminescence, 48 h; series mostly up to 45.8 µM; note: nearly all actives have a fitted effect of over 60% in size
Records with an inconclusive call do not appear. The source made the active and inactive calls. Calls come from the whole dose curve; as a rule, active = well fitted cell-killing curve with a large enough effect; inconclusive = small, poorly fitted or top-dose-only effect; inactive = flat fitted curve, though single readings scatter.
Returns: one label drawn from class 1 for active, class 0 for inactive

Example entries and their recorded answers appear below.
> print(dat)
                                   compound  answer.label
1            CCCSc1ccc2nc(NC(=O)OC)[nH]c2c1       class 1
2                         CCOC(=O)c1ccccc1O       class 0
3  CC(C(=O)O)c1ccc(C(=O)c2cccs2)cc1 (stereo not drawn)       class 0
4                                      NCCO       class 0
5                  COC(=O)c1nc(Cl)c(Cl)nc1N       class 1

Which outcome was assigned to `N=C(N)N` in this test?
class 0

Also check `CNC(=O)c1c(I)c(NC(=O)CCCCC(=O)Nc2c(I)c(C(=O)O)c(I)c(C(=O)NC)c2I)c(I)c(C(=O)O)c1I`
class 0

Also check `c1ccc(CCNc2nc(-c3ccccc3)cs2)cc1`
class 0

Also check `O=C(Nc1ccc(C(=O)O)c(O)c1)c1ccccc1`
class 0

----------
biological target: Voltage-gated inwardly rectifying potassium channel KCNH2 (Homo sapiens) (UniProt Q12809); test: qHTS Assay for Small Molecule Inhibitors of the Human hERG Channel Activity (AID 588834); conditions: U2OS BacMam hERG, FluxOR thallium flux fluorescence; series mostly up to 46.1 µM;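 note: lower thallium flux fluorescence means stronger hERG block; nearly all actives have a fitted effect of over 50% in size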
Sequence (Q12809 whole entry, looked up): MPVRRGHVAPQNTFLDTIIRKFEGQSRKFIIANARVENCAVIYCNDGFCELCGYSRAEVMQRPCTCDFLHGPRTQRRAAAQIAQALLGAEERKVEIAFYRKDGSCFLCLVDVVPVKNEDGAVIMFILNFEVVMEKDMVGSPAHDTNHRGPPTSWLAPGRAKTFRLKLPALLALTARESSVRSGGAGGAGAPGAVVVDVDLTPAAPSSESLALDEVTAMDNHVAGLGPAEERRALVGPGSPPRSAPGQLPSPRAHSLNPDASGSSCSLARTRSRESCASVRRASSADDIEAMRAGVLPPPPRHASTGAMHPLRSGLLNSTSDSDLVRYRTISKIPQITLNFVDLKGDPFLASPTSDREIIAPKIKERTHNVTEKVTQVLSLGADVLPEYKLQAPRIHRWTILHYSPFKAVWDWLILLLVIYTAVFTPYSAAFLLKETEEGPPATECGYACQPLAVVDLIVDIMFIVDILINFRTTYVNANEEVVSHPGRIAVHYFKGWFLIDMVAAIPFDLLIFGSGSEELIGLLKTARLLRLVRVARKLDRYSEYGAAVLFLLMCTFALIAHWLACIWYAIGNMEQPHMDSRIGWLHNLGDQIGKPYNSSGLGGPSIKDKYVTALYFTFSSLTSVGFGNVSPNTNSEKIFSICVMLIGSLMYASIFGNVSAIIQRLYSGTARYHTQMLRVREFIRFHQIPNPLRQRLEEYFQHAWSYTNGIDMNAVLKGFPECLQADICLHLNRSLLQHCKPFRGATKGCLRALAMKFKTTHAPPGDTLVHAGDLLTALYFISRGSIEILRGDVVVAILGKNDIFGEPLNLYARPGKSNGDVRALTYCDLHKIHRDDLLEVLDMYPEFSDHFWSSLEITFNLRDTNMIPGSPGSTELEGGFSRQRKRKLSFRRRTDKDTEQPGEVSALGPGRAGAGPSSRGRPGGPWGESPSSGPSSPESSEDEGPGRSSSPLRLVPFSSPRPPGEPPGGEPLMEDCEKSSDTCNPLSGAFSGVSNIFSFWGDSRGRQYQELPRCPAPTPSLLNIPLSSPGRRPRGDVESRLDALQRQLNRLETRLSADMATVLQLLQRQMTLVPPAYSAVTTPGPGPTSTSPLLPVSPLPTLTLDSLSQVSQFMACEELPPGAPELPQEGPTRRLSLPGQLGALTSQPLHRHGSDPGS
Results filed as inconclusive are left out. Active and inactive are the calls of the source. Calls come from the whole dose curve; as a rule, active = well fitted inhibition curve with a large enough effect; inconclusive = small, poorly fitted or top-dose-only effect; inactive = flat fitted curve, though single readings scatter. Where a SMILES comes first, the peptide text is derived from it. [ ]: non-standard residue; d: D form. pGlu = O=C1CC[C@@H](C(=O)O)N1; Thz = O=C(O)[C@@H]1CSCN1
Returns: one label drawn from 1 for active, 0 for inactive

Example entries and their recorded answers appear below.
> print(dat)
                                   compound                             target.entity  answer.label
1  Cc1ccccc1CNc1ncnc2c1ncn2C1OC(CO)C(O)C1O (stereo not given)  Voltage-gated inwardly rectifying potassium channel KCNH2 (Homo sapiens) (UniProt Q12809)             0
2  O=C1CC[C@@H](C(=O)N2CSC[C@H]2C(=O)O)N1 ([pGlu]-[Thz]-OH)  Voltage-gated inwardly rectifying potassium channel KCNH2 (Homo sapiens) (UniProt Q12809)             0
3  CCCC(=O)OC[C@@H](OC(=O)CCC)[C@@H](OC(=O)CCC)[C@H](Cn1c2nc(=O)[nH]c(=O)c-2nc2cc(C)c(C)cc21)OC(=O)CCC  Voltage-gated inwardly rectifying potassium channel KCNH2 (Homo sapiens) (UniProt Q12809)             1
4                      CN1CCC[C@H]1c1cccnc1  Voltage-gated inwardly rectifying potassium channel KCNH2 (Homo sapiens) (UniProt Q12809)             0
5  CCCCCCCCCCCCCCCCCC(=O)OC(CC(=O)O)C[N+](C)(C)C (stereo not given)  Voltage-gated inwardly rectifying potassium channel KCNH2 (Homo sapiens) (UniProt Q12809)             0
6  O=c1[nH]c2cc(C(F)(F)F)ccc2n1-c1cc(C(F)(F)F)ccc1O  Voltage-gated inwardly rectifying potassium channel KCNH2 (Homo sapiens) (UniProt Q12809)             0
7  CC(C(=O)O)c1ccc2c(c1)[nH]c1ccc(Cl)cc12 (stereo not given)  Voltage-gated inwardly rectifying potassium channel KCNH2 (Homo sapiens) (UniProt Q12809)             0
8  O=C(O)/C=C/C(O)c1ccc(Cl)cc1 (stereo not given)  Voltage-gated inwardly rectifying potassium channel KCNH2 (Homo sapiens) (UniProt Q12809)             0

Which outcome was assigned to `O=C(O)[C@@H]1C[C@H](C(=O)O)N1` in this test?
0

Also check C#CCN1C(C)=C(C(=O)OC)C(c2cccc([N+](=O)[O-])c2)C(C(=O)OCC)=C1C (stereo not given)
0
